Study Target: c-kit (Homo sapiens)
Construct: human Mo7e cells which endogenously express c-kit; endogenous in cells; host or cells: human Mo7e cells (promegakaryocytic leukemia line), stimulated with human recombinant SCF
Sequence (P10721 26-976): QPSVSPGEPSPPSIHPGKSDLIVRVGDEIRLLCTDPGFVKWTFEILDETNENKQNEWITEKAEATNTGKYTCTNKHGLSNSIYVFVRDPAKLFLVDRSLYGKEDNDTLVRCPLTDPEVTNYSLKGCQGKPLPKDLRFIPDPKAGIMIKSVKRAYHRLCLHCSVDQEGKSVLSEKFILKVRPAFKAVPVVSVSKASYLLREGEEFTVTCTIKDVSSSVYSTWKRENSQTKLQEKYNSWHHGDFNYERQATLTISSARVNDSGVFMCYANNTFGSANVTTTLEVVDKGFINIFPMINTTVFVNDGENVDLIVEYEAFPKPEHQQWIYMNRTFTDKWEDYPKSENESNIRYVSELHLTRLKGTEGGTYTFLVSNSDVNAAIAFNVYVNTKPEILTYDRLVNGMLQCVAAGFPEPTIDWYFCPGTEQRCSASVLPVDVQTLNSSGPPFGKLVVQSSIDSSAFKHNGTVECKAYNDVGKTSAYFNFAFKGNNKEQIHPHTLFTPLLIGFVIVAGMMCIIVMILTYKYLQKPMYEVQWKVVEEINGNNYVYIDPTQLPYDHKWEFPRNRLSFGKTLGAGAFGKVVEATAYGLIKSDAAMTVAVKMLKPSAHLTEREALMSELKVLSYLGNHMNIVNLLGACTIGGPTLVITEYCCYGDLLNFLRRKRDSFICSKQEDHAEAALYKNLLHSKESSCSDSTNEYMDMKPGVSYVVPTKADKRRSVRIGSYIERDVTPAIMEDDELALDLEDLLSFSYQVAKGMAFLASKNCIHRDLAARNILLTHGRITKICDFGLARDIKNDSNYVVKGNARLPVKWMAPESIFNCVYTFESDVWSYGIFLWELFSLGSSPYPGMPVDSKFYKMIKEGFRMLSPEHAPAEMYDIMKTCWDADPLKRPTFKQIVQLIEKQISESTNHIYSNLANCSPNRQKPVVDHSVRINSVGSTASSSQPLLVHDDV
Test Protocol: Mo7e cell proliferation assay (SCF dependent proliferation)
Assay type: cell-based
Condition Label: Table 2; human Mo7e cells stimulated with SCF, 48 hours, CellTiter Glo; 1% FBS; read-out: c-kit (Mo7e)
Outcome Measure: IC50 (nM)
One number for each entry, in nM.

Dear reader, for each entry below, please note its IC50.
1. Cc1ccc(-c2noc([C@H]3CCCN3S(C)(=O)=O)n2)cc1NC(=O)c1cnc2ccccn12 [F213]
2. Cc1ccc(-c2noc(C3C[C@H](O)CN3)n2)cc1NC(=O)c1cnc2ccc(F)cn12 (stereo partly drawn) [F306]
3. CC(=O)N1CCOC[C@@H]1c1nc(-c2ccc(C)c(NC(=O)c3cnc4ccccn34)c2)no1 [F168]

## Output
[137, 8370, 358]
